Where do the numbers come from? From patent US20230183713A1.

TARGET: T1, Cre recombinase monomer with Q311R mutation
T1 chain: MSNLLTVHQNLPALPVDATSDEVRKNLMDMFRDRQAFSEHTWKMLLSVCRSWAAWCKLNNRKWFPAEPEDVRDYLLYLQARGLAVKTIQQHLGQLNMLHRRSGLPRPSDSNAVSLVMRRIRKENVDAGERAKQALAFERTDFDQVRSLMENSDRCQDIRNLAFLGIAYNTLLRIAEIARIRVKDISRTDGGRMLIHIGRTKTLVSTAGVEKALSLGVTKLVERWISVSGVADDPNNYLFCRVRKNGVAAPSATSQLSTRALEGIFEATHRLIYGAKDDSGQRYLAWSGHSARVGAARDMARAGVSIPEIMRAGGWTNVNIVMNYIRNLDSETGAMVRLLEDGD
EXPERIMENTAL_READOUT: Median dimer activity (recombination on loxP) (%)
Only the number, expressed in %, is required.

// query Name the recorded Median dimer activity (recombination on loxP) of the protein listed here: Cre recombinase monomer with K201L mutation (protein) MSNLLTVHQNLPALPVDATSDEVRKNLMDMFRDRQAFSEHTWKMLLSVCRSWAAWCKLNNRKWFPAEPEDVRDYLLYLQARGLAVKTIQQHLGQLNMLHRRSGLPRPSDSNAVSLVMRRIRKENVDAGERAKQALAFERTDFDQVRSLMENSDRCQDIRNLAFLGIAYNTLLRIAEIARIRVKDISRTDGGRMLIHIGRTLTLVSTAGVEKALSLGVTKLVERWISVSGVADDPNNYLFCRVRKNGVAAPSATSQLSTRALEGIFEATHRLIYGAKDDSGQRYLAWSGHSARVGAARDMARAGVSIPEIMQAGGWTNVNIVMNYIRNLDSETGAMVRLLEDGD
// result 92
